- ASSAY_REMARKS: method code SF-GLC, from DOI: 10.1007/bf00316585, PMID: 6732504
Rule: logP below 0.5 gives Criterion met. Equal to or above 0.5 gives Criterion not met.

- CCCCCCCCC#N: Criterion not met
- CCCCCC#N: Criterion not met
- CCCC#N: Criterion not met
- CC(C)CCC#N: Criterion not met
- N#CCCO: Criterion met
- C=CCC#N: Criterion met
- N#CCCCl: Criterion met
- N#CCCl: Criterion met
- CCCCCCCC#N: Criterion not met
- CC(C)C#N: Criterion met
- C=C(C)C#N: Criterion not met
- N#CCCCCl: Criterion not met
